measured_endpoint: melting point

CC(C)Oc1ccc(CCCOc2cc(CCC(=O)O)n(C3CCCCC3)n2)c(Oc2ncc(C(F)(F)F)cc2Cl)c1 | 114 to 115 °C
COc1ccc(C2=NN(c3ccc(-c4nnn(Cc5ccccc5)n4)cc3)C(=O)[C@H]3CC=CC[C@@H]23)cc1OC (relative stereo) | 100 to 102 °C
CSC(SC)(SC)C(O)c1ccc(-n2cccc2)cc1 (stereo unspecified) | 101 to 103 °C
Cc1ccccc1C(=O)n1ccc(-c2ccc(C(=O)N3Cc4cccn4Cc4ccccc43)cc2)n1 | 170 to 173 °C
CCC(Cl)Cc1sc(O)nc1C (stereo unspecified) | 84 to 85 °C

Value of measured melting point for the entry COc1c(C(C)(C)C)cc(P(c2cc(C(C)(C)C)c(OC)c(C(C)(C)C)c2)c2ccccc2P2c3ccccc3CC2C(C)C)cc1C(C)(C)C (single isomer, unassigned; (+)) : 69 to 70 °C

----------
measured_endpoint: melting point

Cc1cc(-n2ccnc2)c2cccc(OCc3c(Cl)ccc(S(=O)(=O)N4CCC[C@H]4C(=O)N(C)C)c3Cl)c2n1 | 88 °C
Cc1ccc(CNc2nc(Cl)nc(OCC(F)(F)F)n2)o1 | 70 to 72 °C
Nc1c(F)cc(I)cc1Cl | 85 to 87 °C
CCn1cc(F)c(N=CN(C)C)nc1=O | 157 to 160 °C
CCCN1CCC(c2ccccc2)=C(C(=O)NCc2ccccc2)C1 | 96 to 98 °C
C[C@@H]1Cc2cc(N3C[C@H](COS(C)(=O)=O)OC3=O)ccc2N1C(=O)OCc1ccccc1 | 72 to 73 °C
Cc1cc(C=CC(=O)O)c(Cl)nc1C | 150 to 158 °C
N=C(NC1CC1)N[N+](=O)[O-] | 127 to 130 °C

Value of measured melting point for the entry COc1ccc2cc(CNc3ccc(O)cc3)ccc2c1 : 139 to 140 °C

Value of measured melting point for the entry Cc1cccc2nc(NC(=O)c3ccc(C(C)(C)C)cc3)cn12 : 204 to 205 °C

Value of measured melting point for the entry CCCOc1ccc2nc(NC(=O)OCC)sc2c1 : 175 to 177 °C

Value of measured melting point for the entry Cc1noc2cccc(OCC3CO3)c12 (configuration not stated) : 51 to 53 °C

----------
As shown below, each of these compounds has a reported melting point value.

Sample answers from the record:
OC(Cn1cncn1)(Cn1ncnc1C=Cc1ccc(Cl)cc1)c1ccc(Cl)cc1Cl (stereo not given) | 193 to 196 °C
CCC(=O)NS(=O)(=O)c1ccc(C(=O)C=Cc2cc(-c3cc4ccccc4[nH]3)c(OC)cc2OC)cc1 | 223 to 225 °C
CCS(=O)(=O)c1ccc2cc(C(=O)O)ccc2c1 | 241 °C

Value of measured melting point for the entry O=C(N[C@H]1CCCNC1=O)c1ccc(C(F)(F)F)cc1 : 212 to 214 °C

----------
measured_endpoint: melting point

Sample answers from the record:
CCOC(=O)c1ccc(CCC(=O)CO)cc1 | 51 to 52 °C
CCc1cccc(C)c1CNc1cc(C(=O)O)nc2c1nc(C)n2C | 235 to 238 °C
O=C1NC(=O)C(c2c3n(c4ccccc24)CCC(CO)C3)=C1c1coc2ccccc12 (stereo not drawn) | 246 to 248 °C
O=c1cc(-c2ccncc2)nc2n1CCCN2CCCc1c[nH]c2ccccc12 | 230 to 232 °C

Value of measured melting point for the entry C#CCN1CC(=O)NC1=O : 124 to 125 °C

Value of measured melting point for the entry CCCn1cc2c(C3C(=O)Nc4ccc(Br)cc43)nc(NCC(O)CO)nc2n1 (stereo not drawn) : 295 to 297 °C

Value of measured melting point for the entry CC12CCC(C(=O)N(CCCCN3CCN(c4ccccn4)CC3)C1=O)C2(C)C (stereo not drawn) : 96 to 97 °C

Value of measured melting point for the entry Nc1c(Cl)cc(C(=O)NCCC23CCCN2CCC3)c2c1CCO2 : 124 °C

Where these numbers come from: a melting point compilation (Tetko et al.; mined from patent text by program, amines drawn as free bases though some values may be those of a salt)
